As shown below, each of these compounds has a reported EC50 value.
target: Extracellular calcium-sensing receptor (Homo sapiens); assay: Positive allosteric modulation of human CaSR expressed in CHO cells assessed as increase in intracellular calcium level after 5 hrs by luciferase reporter gene assay
Sequence (P41180 whole entry): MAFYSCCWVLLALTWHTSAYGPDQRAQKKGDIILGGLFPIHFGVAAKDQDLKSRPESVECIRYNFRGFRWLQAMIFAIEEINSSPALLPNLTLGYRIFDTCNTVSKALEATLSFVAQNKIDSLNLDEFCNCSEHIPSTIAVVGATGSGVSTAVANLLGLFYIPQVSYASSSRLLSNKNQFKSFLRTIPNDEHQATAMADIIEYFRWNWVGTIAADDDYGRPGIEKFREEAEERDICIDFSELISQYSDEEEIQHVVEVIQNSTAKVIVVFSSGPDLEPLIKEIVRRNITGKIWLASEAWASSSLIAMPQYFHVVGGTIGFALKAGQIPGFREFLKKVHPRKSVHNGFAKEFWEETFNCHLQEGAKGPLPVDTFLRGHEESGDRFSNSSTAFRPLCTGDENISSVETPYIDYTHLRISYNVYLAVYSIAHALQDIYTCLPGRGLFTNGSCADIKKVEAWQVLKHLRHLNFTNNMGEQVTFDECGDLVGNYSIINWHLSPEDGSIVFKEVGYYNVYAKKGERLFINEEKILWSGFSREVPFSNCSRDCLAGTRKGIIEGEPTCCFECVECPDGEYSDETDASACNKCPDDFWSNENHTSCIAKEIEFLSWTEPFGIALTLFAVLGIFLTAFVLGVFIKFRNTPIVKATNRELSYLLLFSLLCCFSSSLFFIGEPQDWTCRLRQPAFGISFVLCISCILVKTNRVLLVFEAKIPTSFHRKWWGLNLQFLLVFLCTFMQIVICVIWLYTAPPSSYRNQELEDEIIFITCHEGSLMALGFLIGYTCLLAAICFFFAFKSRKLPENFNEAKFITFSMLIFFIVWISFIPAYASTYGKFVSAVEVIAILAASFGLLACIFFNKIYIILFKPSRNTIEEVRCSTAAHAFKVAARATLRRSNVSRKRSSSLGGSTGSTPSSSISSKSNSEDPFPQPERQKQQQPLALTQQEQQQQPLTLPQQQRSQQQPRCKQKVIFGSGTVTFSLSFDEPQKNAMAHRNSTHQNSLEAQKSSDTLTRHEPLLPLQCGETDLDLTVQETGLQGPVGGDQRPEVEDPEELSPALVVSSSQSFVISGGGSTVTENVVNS
Response body: numeric value in nM, unit text excluded.

1) O=C(Nc1nccs1)N(CCC(c1ccccc1)c1ccccc1)CCN1CCOCC1
300
2) O=C(Nc1nccc(-c2nccs2)n1)N(CCC(c1ccccc1)c1ccccc1)CCN1CCOCC1
200
3) O=C(Nc1nc2ccc(OC(F)(F)F)cc2s1)N(CCC(c1ccccc1)c1ccccc1)CCN1CCOCC1
90
4) CN(C)CCNC(=O)c1ccc2nc(NC(=O)N(CCC(c3ccccc3)c3ccccc3)CCN3CCOCC3)sc2c1
200
5) O=C(Nc1nc2ccc(F)cc2s1)N(CCC(c1ccccc1)c1ccccc1)CCN1CCOCC1
200
6) CCOc1ccc2nc(NC(=O)N(CCC(c3ccccc3)c3ccccc3)CCN3CCOCC3)sc2c1
1000

Recorded EC50 for COc1cc(C)nc(NC(=O)N(CCC(c2ccccc2)c2ccccc2)CCN2CCOCC2)n1 , please?
400

Entry Cn1c(NC(=O)N(CCC(c2ccccc2)c2ccccc2)CCN2CCOCC2)nc2ccccc21 has what EC50?
150

---

assay: Volume of distribution in Sprague-Dawley rat chronic renal failure model at 0.3 mg/kg, iv; type: ADME, organism-based; set-up: dose 0.3 mg/kg, route intravenous; conditions: in vivo
ATTRIBUTE_MEASURED: Vd (L/kg)
Kindly answer with a numeric value in L/kg, unit omitted.

Endpoint output: Vd of Cl.Cl.O=C(Nc1nc2ccccc2s1)N(CCC(c1ccccc1)c1ccccc1)CCN1CCOCC1 . Value?
5.17

---

test: Cmax in Sprague-Dawley rat chronic renal failure model at 0.3 mg/kg, iv; type: ADME, organism-based; design: dose 0.3 mg/kg, route intravenous; conditions: in vivo
ATTRIBUTE_MEASURED: Cmax (ng/mL)
Respond numerically; units are ng/mL and should not be typed.

Would you mind telling me what Cmax value was observed for Cl.Cl.O=C(Nc1nc2ccccc2s1)N(CCC(c1ccccc1)c1ccccc1)CCN1CCOCC1 ?
546

---

Each record here notes measured pEC50.
molecular target: Extracellular calcium-sensing receptor (Homo sapiens); experiment: Positive allosteric modulation of human CaSR expressed in CHO cells assessed as increase in intracellular calcium level after 5 hrs by luciferase reporter gene assay
Hey, just a heads up that pEC50 is the negative log base 10 of the concentration in molar.

Name the recorded pEC50 for O=C(Nc1nc2ccccc2s1)N(CCC(c1ccccc1)c1ccccc1)CCN1CCOCC1 .
7.70

I have this molecule here, O=C(Nc1nc2ccc(Cl)cc2s1)N(CCC(c1ccccc1)c1ccccc1)CCN1CCOCC1 , and I need its recorded pEC50.
7.22

// returns reported pEC50 for input Cc1ccc2nc(NC(=O)N(CCC(c3ccccc3)c3ccccc3)CCN3CCOCC3)sc2c1
7.52

Suppose we examine the molecule COc1ccc2nc(NC(=O)N(CCC(c3ccccc3)c3ccccc3)CCN3CCOCC3)sc2c1 ; what pEC50 value has been reported?
7.40

Entry O=C(Nc1nc2ccc(CO)cc2s1)N(CCC(c1ccccc1)c1ccccc1)CCN1CCOCC1 has what pEC50?
7.10

State the recorded pEC50 for this entry: COc1cccc2sc(NC(=O)N(CCC(c3ccccc3)c3ccccc3)CCN3CCOCC3)nc12
7.52

pEC50 lookup needed for COC(=O)c1sccc1NC(=O)N(CCC(c1ccccc1)c1ccccc1)CCN1CCOCC1 , thanks.
6.40

Which pEC50 reading was recorded for the molecule CS(=O)(=O)Nc1ccc2nc(NC(=O)N(CCC(c3ccccc3)c3ccccc3)CCN3CCOCC3)sc2c1 ?
7.52

Item O=C(Nc1nc2ccccc2n1Cc1ccccc1)N(CCC(c1ccccc1)c1ccccc1)CCN1CCOCC1 has what recorded pEC50?
6.52
